This section presents compounds with their documented IC50 values.
Biological target: human TLR9 (Homo sapiens)
Test: HEK293-Blue-hTLR-9 cells assay
Details: HEK293-Blue-hTLR9 cells, ODN2006 stimulation, 20 hrs, SEAP reporter; read-out: HEK/hTLR9 IC50

| COMPOUND | IC50 / nM |
| --- | --- |
| CO[C@H]1CN(c2ccc3c(c2)CN2[C@H](C)CN(c4ccc(C#N)c5ncccc45)C[C@H]32)C[C@@H]1N (relative stereo) | 95.2 |
| C[C@@H]1CN(c2ccc(C#N)c3ncccc23)C[C@@H]2c3ccc(NC4CNCCOC4)cc3CN12 (stereo partly shown) | 103 |
| C[C@@H]1CN(c2ccc(C#N)c3ncccc23)C[C@@H]2c3ccc(N4CCNCC4)cc3CN12 | 106 |
| CN[C@@H]1CN(c2ccc3c(c2)CN2[C@H](C)CN(c4ccc(C#N)c5ncccc45)C[C@H]32)C[C@H]1O | 55.5 |

---

Target: UniProt:Q9NR96
Assay: HEK293-Blue-hTLR-9 cells assay
Type: cell-based
Details: HEK293-Blue-hTLR9 cells, ODN2006 stimulation, 20 hrs, SEAP reporter; read-out: HEK/hTLR9 IC50
pIC50: −log10 of the molar value.

| COMPOUND | pIC50 |
| --- | --- |
| CO[C@@H]1CN(c2ccc3c(c2)CN2[C@H](C)CN(c4ccc(C#N)n5ncc(F)c45)C[C@H]32)C[C@H]1N | 6.87 |
| CO[C@H]1CN(c2ccc3c(c2)CN2C3CN(c3ccc(C#N)c4ncccc34)C[C@H]2C)C[C@@H]1N (single isomer, unassigned) [Example 16A] | 6.95 |
| COC1CN(c2ccc3c(c2)CN2C3CN(c3ccc(C#N)c4ncccc34)C[C@H]2C)CC1N (single isomer, unassigned) [Example 16B] | 7.01 |
| C[C@@H]1CN(c2ccc(C#N)c3ncccc23)C[C@@H]2c3ccc(OCCN(C)C)cc3CN12 | 6.94 |

---

Target: human TLR8 (Homo sapiens, UniProt Q9NR97)
Sequence (Q9NR97 27-1041): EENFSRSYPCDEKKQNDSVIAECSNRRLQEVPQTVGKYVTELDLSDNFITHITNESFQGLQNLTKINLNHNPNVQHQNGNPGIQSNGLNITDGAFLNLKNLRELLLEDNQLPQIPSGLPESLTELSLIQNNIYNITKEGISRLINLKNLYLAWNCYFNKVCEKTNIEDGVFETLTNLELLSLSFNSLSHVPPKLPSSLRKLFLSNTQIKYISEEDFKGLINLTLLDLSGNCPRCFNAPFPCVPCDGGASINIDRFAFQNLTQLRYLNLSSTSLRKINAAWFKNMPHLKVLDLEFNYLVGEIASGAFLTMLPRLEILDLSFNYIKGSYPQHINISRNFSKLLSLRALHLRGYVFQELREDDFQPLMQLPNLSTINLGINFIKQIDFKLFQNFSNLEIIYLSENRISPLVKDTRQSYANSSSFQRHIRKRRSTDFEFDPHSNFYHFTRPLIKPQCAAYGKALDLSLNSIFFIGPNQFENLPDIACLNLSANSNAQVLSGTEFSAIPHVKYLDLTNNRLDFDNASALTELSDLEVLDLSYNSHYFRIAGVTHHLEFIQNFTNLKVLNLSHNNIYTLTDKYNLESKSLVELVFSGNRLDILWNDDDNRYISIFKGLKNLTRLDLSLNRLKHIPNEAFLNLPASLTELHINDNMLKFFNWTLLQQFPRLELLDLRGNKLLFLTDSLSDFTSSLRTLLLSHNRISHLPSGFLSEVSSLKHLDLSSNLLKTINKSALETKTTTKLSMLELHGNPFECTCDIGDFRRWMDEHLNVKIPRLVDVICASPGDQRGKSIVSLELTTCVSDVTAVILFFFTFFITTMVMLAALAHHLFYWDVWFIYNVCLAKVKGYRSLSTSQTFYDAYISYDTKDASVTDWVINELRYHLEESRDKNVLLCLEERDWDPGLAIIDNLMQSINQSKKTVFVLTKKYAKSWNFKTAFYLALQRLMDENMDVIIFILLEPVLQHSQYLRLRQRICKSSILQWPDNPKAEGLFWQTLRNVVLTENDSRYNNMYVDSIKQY
Assay: HEK293-Blue-hTLR-8 cells assay
Settings: HEK293-Blue-hTLR8 cells, R848 stimulation, 20 hrs, SEAP reporter; read-out: HEK/hTLR8 IC50

| COMPOUND | IC50 |
| --- | --- |
| C[C@@H]1CN(c2ccc(C#N)n3nccc23)C[C@@H]2c3ccc(N[C@H]4CNC[C@H]4F)cc3CN12 | 8.8 nM |
| C[C@@H]1CN(c2ccc(C#N)c3ncccc23)C[C@@H]2c3ccc(NC[C@@H]4CNCCO4)cc3CN12 | < 3.2 nM |
| C[C@@H]1CN(c2ccc(C#N)c3ncsc23)C[C@@H]2c3ccc(N[C@H]4CNC[C@H]4F)cc3CN12 | 0.4 nM |
| C[C@@H]1CN(c2ccc(C#N)c3ncccc23)C[C@@H]2c3ccc(N4CCOC5(CNC5)C4)cc3CN12 | < 3.2 nM |
| C[C@@H]1CN(c2ccc(C#N)n3ncc(F)c23)C[C@@H]2c3ccc(N4C[C@H](N)[C@@](C)(O)C4)cc3CN12 | 3.6 nM |
| C[C@@H]1CN(c2ccc(C#N)c3ncccc23)C[C@@H]2c3ccc(N4C[C@@H](F)[C@@H](N)C4)cc3CN12 | 0.4 nM |
| C[C@@H]1CN(c2ccc(C(F)(F)F)c3nccnc23)C[C@@H]2c3ccc(N[C@H]4CNC[C@H]4F)cc3CN12 | < 3.2 nM |
| C[C@@H]1CN(c2ccc(C#N)c3ncccc23)C[C@@H]2c3ccc(N4C[C@H]5CNCCN5C4=O)cc3CN12 | < 3.2 nM |
| C[C@@H]1CN(c2ccc(C#N)c3ncccc23)C[C@@H]2c3ccc(N4CCN[C@H](CO)C4)cc3CN12 | < 3.2 nM |
| C[C@@H]1CN(c2ccc(C#N)c3ncccc23)C[C@@H]2c3ccc(N4C[C@H](N)[C@@](C)(O)C4)cc3CN12 [Example 45B] | 1.2 nM |
| C[C@@H]1CN(c2ccc(C#N)c3ncccc23)C[C@@H]2c3ccc(N4CCNC[C@](C)(O)C4)cc3CN12 [Example 55A] | < 3.2 nM |
| CO[C@H]1CN(c2ccc3c(c2)CN2[C@H](C)CN(c4ccc(C#N)c5ncccc45)C[C@H]32)C[C@@H]1N (relative stereo) | < 3.2 nM |
| C[C@@H]1CN(c2ccc(C#N)c3ncccc23)C[C@@H]2c3ccc(NCCN4CC[C@H](O)C4)cc3CN12 | < 3.2 nM |
| [2H]c1ccc2c(N3C[C@@H](C)N4Cc5cc(N6CC(C)(N)C6)ccc5[C@H]4C3)ccc(C#N)c2n1 | < 0.3 nM |

---

Target: human TLR9 (Homo sapiens)
Sequence (Q9NR96 26-1032): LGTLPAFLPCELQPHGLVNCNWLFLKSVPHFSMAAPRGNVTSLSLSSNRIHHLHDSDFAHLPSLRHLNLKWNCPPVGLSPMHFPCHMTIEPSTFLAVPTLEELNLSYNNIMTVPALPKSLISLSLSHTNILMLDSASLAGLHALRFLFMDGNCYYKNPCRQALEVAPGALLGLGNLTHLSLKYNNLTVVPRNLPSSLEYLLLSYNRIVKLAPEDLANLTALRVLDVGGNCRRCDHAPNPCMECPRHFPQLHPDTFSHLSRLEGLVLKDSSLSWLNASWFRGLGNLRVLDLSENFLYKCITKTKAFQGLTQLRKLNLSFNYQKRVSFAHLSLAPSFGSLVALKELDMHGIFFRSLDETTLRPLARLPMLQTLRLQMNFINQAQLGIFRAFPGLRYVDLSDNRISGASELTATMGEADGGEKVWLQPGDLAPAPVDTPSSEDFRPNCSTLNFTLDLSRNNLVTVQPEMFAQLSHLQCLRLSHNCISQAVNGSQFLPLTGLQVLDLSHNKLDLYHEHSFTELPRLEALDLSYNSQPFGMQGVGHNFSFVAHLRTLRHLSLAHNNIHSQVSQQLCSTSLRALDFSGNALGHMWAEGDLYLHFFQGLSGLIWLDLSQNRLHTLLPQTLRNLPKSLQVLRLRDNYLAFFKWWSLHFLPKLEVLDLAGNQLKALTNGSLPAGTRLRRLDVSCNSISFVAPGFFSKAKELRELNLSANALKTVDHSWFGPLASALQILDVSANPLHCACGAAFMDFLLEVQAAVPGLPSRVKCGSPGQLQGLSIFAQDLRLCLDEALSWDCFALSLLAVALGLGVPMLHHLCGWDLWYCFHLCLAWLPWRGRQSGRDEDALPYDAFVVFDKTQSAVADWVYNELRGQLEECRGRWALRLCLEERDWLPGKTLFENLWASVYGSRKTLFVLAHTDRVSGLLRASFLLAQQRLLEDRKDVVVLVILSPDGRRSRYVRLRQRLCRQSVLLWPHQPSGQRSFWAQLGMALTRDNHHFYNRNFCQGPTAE
Experiment: HEK293-Blue-hTLR-9 cells assay
Assay type: cell-based
Details: HEK293-Blue-hTLR9 cells, ODN2006 stimulation, 20 hrs, SEAP reporter; read-out: HEK/hTLR9 IC50
Recorded IC50 by entry

| COMPOUND | ASSAY_SYSTEM | IC50, nM |
| --- | --- | --- |
| C[C@@H]1CN(c2ccc(C#N)c3ncccc23)C[C@@H]2c3ccc(N4C[C@@H](N)[C@](C)(O)C4)cc3CN12 [Example 45A] | human TLR9 (Homo sapiens) | 78.3 |
| C[C@@H]1CN(c2ccc(C#N)c3ncccc23)C[C@@H]2c3ccc(N4CCOC[C@H](N)C4)cc3CN12 [Example 54A] | human TLR9 (Homo sapiens) | 92.2 |
| C[C@@H]1CN(c2ccc(C#N)c3ncccc23)C[C@@H]2c3ccc(N4CC5(CNC5)C4)cc3CN12 | human TLR9 (Homo sapiens) | 100 |
| C[C@@H]1CN(c2ccc(C#N)c3ncccc23)C[C@@H]2c3ccc(N4CC5(CN(C)C5)C4)cc3CN12 | human TLR9 (Homo sapiens) | 66.8 |
| CO[C@H]1CNC[C@@H]1N(C)c1ccc2c(c1)CN1[C@H](C)CN(c3ccc(C#N)c4ncccc34)C[C@H]21 | human TLR9 (Homo sapiens) | 125 |
| C[C@@H]1CN(c2ccc3c(c2)CN2[C@H](C)CN(c4ccc(C#N)n5nccc45)C[C@H]32)CCN1 | human TLR9 (Homo sapiens) | 161 |
| C[C@@H]1CN(c2ccc(C#N)c3ncccc23)C[C@@H]2c3ccc(NCC4COCCN4)cc3CN12 (stereo partly shown) | human TLR9 (Homo sapiens) | 105 |
